target-of-assay: SARS-CoV N protein (SARS-CoV, UniProt P59595 1-422)
Sequence (P59595 whole entry): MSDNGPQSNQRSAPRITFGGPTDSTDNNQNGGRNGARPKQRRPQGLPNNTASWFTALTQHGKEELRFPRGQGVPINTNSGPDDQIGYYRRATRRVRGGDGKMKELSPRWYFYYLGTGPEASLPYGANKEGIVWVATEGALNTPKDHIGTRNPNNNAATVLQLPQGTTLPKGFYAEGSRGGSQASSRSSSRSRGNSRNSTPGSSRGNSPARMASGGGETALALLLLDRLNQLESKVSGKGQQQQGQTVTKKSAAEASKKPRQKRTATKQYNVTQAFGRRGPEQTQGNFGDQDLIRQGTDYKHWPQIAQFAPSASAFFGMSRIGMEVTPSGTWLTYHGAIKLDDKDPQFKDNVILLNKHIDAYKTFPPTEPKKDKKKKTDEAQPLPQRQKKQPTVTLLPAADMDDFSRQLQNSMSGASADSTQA
measurement-parameters: protein: commercial; chain copies: 2; label: biotin (ELONA); 5'-FAM (flow cytometry, confocal)
property-label: Kd (nM)
Give bare numbers, in nM.

I'd like to know its Kd. The binder in question is NP14 (structured_DNA) DNA: TTTTTAACACGACTCTCCTGTGGCCAGCGAACTGATTGCCTGTCGTGCCATG
3.45
